Origin of the recorded values: patent US11306081B2

What follows is a record of pIC50 for UniProtKB O75116.
pIC50: −log10 of the molar value.
experimental-readout: pIC50

- compound-structure-string: "NC(=O)c1cccnc1Oc1ccc(CC(=O)Nc2nnc(-c3ccncc3)s2)cc1F"
  experimental-readout: "pIC50"
  reading: 6.47
- compound-structure-string: "COc1ccc2nc(NC(=O)Cc3ccc(Oc4ncccc4C(N)=O)cc3)sc2c1"
  experimental-readout: "pIC50"
  reading: 7.05
- compound-structure-string: "NC(=O)c1cccnc1Oc1ccc(CC(=O)Nc2nc3cc(C(F)(F)F)ccn3n2)cc1F"
  experimental-readout: "pIC50"
  reading: 6.89
- compound-structure-string: "NC(=O)c1cccnc1Oc1ccc(CC(=O)Nc2nc3cc(F)ccc3n2CC2CC2)cc1Cl"
  experimental-readout: "pIC50"
  reading: 8.00
- compound-structure-string: "NC(=O)c1cccnc1Oc1ccc(CC(=O)Nc2nc3ccccc3n2CC2CC2)cc1Cl"
  experimental-readout: "pIC50"
  reading: 7.85
- compound-structure-string: "Cn1cc(-c2ccc3nc(NC(=O)Cc4ccc(Oc5ncccc5C(N)=O)c(Cl)c4)cn3c2)cn1"
  experimental-readout: "pIC50"
  reading: 7.47
- compound-structure-string: "NC(=O)c1cccnc1Oc1ccc(CC(=O)Nc2ccn(CC(F)(F)F)n2)cc1F"
  experimental-readout: "pIC50"
  reading: 6.23
- compound-structure-string: "CN1CCC(Oc2ccc(NC(=O)Cc3ccc(Oc4ncccc4C(N)=O)c(Cl)c3)cc2)CC1"
  experimental-readout: "pIC50"
  reading: 6.95

* * *

Observed IC50 values for ROCK2 (Homo sapiens (Human)) are listed in what follows.

- compound-structure-string: "CC(C)(O)COc1ccc2c(c1)CCc1sc(NC(=O)Cc3ccc(Oc4ncccc4C(N)=O)c(Cl)c3)nc1-2"
  test-target: "ROCK2 (Homo sapiens (Human))"
  IC50 [nM]: 58
- compound-structure-string: "Cc1ccc(-c2nc(NC(=O)Cc3ccc(Oc4ncccc4C(N)=O)cc3)sc2C)cc1Cl"
  test-target: "ROCK2 (Homo sapiens (Human))"
  IC50 [nM]: 175
- compound-structure-string: "Cc1sc(NC(=O)Cc2ccc(Oc3ncccc3C(N)=O)c(Cl)c2)nc1-c1ccc(Cl)nc1"
  test-target: "ROCK2 (Homo sapiens (Human))"
  IC50 [nM]: 15
- compound-structure-string: "COCCn1c(NC(=O)Cc2ccc(Oc3ncccc3C(N)=O)c(F)c2)nc2ccc(OC)cc21"
  test-target: "ROCK2 (Homo sapiens (Human))"
  IC50 [nM]: 804
- compound-structure-string: "COc1ccc2nc(NC(=O)Cc3ccc(Oc4ncccc4C(N)=O)c(F)c3)n(CC(F)F)c2c1"
  test-target: "ROCK2 (Homo sapiens (Human))"
  IC50 [nM]: 18
- compound-structure-string: "NC(=O)c1cccnc1Oc1ccc(CC(=O)Nc2nc3ccccc3n2CCC(F)(F)F)cc1F"
  test-target: "ROCK2 (Homo sapiens (Human))"
  IC50 [nM]: 42
- compound-structure-string: "N#Cc1cccc(-c2csc(NC(=O)Cc3ccc(Oc4ncccc4C(N)=O)cc3)n2)c1"
  test-target: "ROCK2 (Homo sapiens (Human))"
  IC50 [nM]: 339
- compound-structure-string: "COC(=O)Nc1cc(-c2nc(NC(=O)Cc3ccc(Oc4ncccc4C(N)=O)c(F)c3)sc2C)ccn1"
  test-target: "ROCK2 (Homo sapiens (Human))"
  IC50 [nM]: 49
- compound-structure-string: "Cc1cnc(NC(=O)Cc2ccc(Oc3ncccc3C(N)=O)c(F)c2)s1"
  test-target: "ROCK2 (Homo sapiens (Human))"
  IC50 [nM]: 126
- compound-structure-string: "COc1ccn2nc(NC(=O)Cc3ccc(Oc4ncccc4C(N)=O)c(Br)c3)nc2c1"
  test-target: "ROCK2 (Homo sapiens (Human))"
  IC50 [nM]: 6
- compound-structure-string: "NC(=O)c1cccnc1Oc1ccc(CC(=O)Nc2nc3cc(C(F)(F)F)ccc3n2CC2CC2)cc1Cl"
  test-target: "ROCK2 (Homo sapiens (Human))"
  IC50 [nM]: 7
- compound-structure-string: "NC(=O)c1cccnc1Oc1ccc(CC(=O)Nc2nc3ccc(C(F)(F)F)cn3n2)cc1F"
  test-target: "ROCK2 (Homo sapiens (Human))"
  IC50 [nM]: 69
- compound-structure-string: "NC(=O)c1cccnc1Oc1ccc(CC(=O)Nc2nnc(-c3cnccn3)s2)cc1F"
  test-target: "ROCK2 (Homo sapiens (Human))"
  IC50 [nM]: 150
- compound-structure-string: "NC(=O)c1cccnc1Oc1ccc(CC(=O)Nc2nc(-c3ccccc3)cs2)cc1"
  test-target: "ROCK2 (Homo sapiens (Human))"
  IC50 [nM]: 177
- compound-structure-string: "COCCn1c(NC(=O)Cc2ccc(Oc3ncccc3C(N)=O)c(F)c2)nc2ccccc21"
  test-target: "ROCK2 (Homo sapiens (Human))"
  IC50 [nM]: 1930
- compound-structure-string: "Cc1sc(NC(=O)Cc2ccc(Oc3ncccc3C(N)=O)c(F)c2)nc1-c1ccc(=O)n(C)c1"
  test-target: "ROCK2 (Homo sapiens (Human))"
  IC50 [nM]: 106
